Target: T1, His-tagged cynomolgus TIGIT (cynomolgus, UniProt A0A7N9I9V4 89-209)
T1 construct: SPR analyte; also called cynomolgus TIGIT protein; not shown: His tag
T1 sequence (A0A7N9I9V4 entry or part of it): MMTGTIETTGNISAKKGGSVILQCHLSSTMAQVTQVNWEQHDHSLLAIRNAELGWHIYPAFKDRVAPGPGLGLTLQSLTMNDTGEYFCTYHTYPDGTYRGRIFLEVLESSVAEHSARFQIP
Test: SPR (Biacore T200), antibody captured, His-tagged TIGIT analyte
endpoint: Kd (nM)
// return numeric value only (unit: nM, not printed)

// solved cases for Kd follow
huTIGIT-19-2 (antibody, human IgG1, kappa, V domains shown, Humanized IgG; also called 19VH4.M9 + 19VL1.M7) VH: QVQLVQSGAEVKKPGASVKVSCKASGYTFTRYSMYWVRQAPGQGLEWIAFIDAYSGGSTYNQRFRGKATLTVDTSISTAYMELSRLRSDDTAVYYCARGGDYGWYLGVWGQGTLVTVSS VL: DIQMTQSPSSLSASVGDRVTITCRASQSIYSYLSWYQQKPGKAPKLLIYNAKSLPSGVPSRFSGSGSGTDFTLTISSLQPEDFATYYCQHHYGNPLTFGQGTKVEIKR | 0.055
huTIGIT-6-1 (antibody, human IgG1, kappa, V domains shown, Humanized IgG; also called 6VH6.M4 + 6VL1.M1) VH: QVQLVQSGAEVKKPGASVKVSCKASGYTITENTMHWVRQAPGQRLEWIGGINPNQGGTSYSQKFQGRATLTVDTSASTAYMELSSLRSEDTAVYYCTRSSYYRYDLDYWGQGTTVTVSS VL: DIQMTQSPSSLSASVGDRVTITCQASQDIKTALAWYQQKPGKAPKLLIYSASYRYTGVPSRFSGSGSGTDFTFTISSLQPEDIATYYCHQHYTTPWTFGGGTKLEIKR | 75
huTIGIT-19-4 (antibody, human IgG1, kappa, V domains shown, Humanized IgG; also called 19VH4.M10 + 19VL1.M7) VH: QVQLVQSGAEVKKPGASVKVSCKASGYTFTRYSMYWVRQAPGQGLEWIAFIDAYSGGSTYAQKFQGKATLTVDTSISTAYMELSRLRSDDTAVYYCARGGDYGWYLGVWGQGTLVTVSS VL: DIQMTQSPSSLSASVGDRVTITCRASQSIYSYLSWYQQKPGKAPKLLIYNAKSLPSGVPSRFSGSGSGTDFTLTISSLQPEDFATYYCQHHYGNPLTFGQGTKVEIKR | 0.087
TIGIT-3 chimeric antibody (antibody, human IgG1, kappa, V domains shown, also called 3VH + 3VL) VH: EVQLVESGGGLVQPGGSLKLSCAASGFTFSSYGMSWVRQTPDKRLELVATIKSDGGSTNLPDSVKGRFTISRDNAKNTLHLQMSSLKSEDTAMYYCVRGYFDYWGQGTSVTVSS VL: DIVMTQSHKFMSTSVGDRVSITCKASQDVKTAVAWYQQKPGQSPKLLIYWSSTRHTGVPDRFTGSRSLTDHTLTISSVQAEDLALYYCQQYYSTPYTFGGGTKLELKR | 0.45
huTIGIT-6-3 (antibody, human IgG1, kappa, V domains shown, Humanized IgG; also called 6VH6.M6 + 6VL1.M1) VH: QVQLVQSGAEVKKPGASVKVSCKASGYTFTENAMHWVRQAPGQRLEWIGGINPNQGGTSYSQKFQGRATLTVDTSASTAYMELSSLRSEDTAVYYCTRSSYYRYDLDYWGQGTTVTVSS VL: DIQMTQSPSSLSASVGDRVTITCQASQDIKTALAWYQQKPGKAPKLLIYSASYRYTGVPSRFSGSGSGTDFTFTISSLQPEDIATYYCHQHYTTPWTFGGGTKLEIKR | 130
Hu1217-2-2 (anti-TIGIT positive control antibody) (antibody, V domains shown) VH: EVQLVESGGGLVQPGGSLRLSCAASGFTFSDYYMYWVRQAPGKGLEWVAYITKGGGSTYYPDSVKGRFTISRDNAKNTLYLQMNSLRAEDTAVYYCARQTNYDFTMDYWGQGTLVTVSS VL: EIVMTQSPATLSVSPGERATLSCKASQDVGTSVAWYQQKPGQAPRLLIYWASARHTGIPARFSGSGSGTEFTLTISSLQSEDFAVYYCQQYSSYPLTFGGGTKVEIK | 470

Then this binder:
Reported Kd for huTIGIT-6-2 (antibody, human IgG1, kappa, V domains shown, Humanized IgG; also called 6VH6.M5 + 6VL1.M1) VH: QVQLVQSGAEVKKPGASVKVSCKASGYTITENTMHWVRQAPGQRLEWIGGINPNNAGTSYSQKFQGRATLTVDTSASTAYMELSSLRSEDTAVYYCTRSSYYRYDLDYWGQGTTVTVSS VL: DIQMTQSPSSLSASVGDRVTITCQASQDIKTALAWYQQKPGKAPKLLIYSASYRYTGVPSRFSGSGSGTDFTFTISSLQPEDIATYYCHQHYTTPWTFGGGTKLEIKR was 110
